system: surinam grass; test: Test B pre/postemergence surinam grass; format: in vivo, Brachiaria decumbens; details: Preemergence, Rate 500 g/ha; scale of 0 to 10 where 0 is no effect and 10 is complete control
Measured Attribute: B. signalgrass plant response rating

• CC(C)N(C(=O)n1oc(=O)n(CCl)c1=O)c1ccccc1 [Compound 423] = 0
• CC(C)N(C(=O)n1oc(=O)n(N2C(C)CCCC2C)c1=O)c1ccc(F)cc1 (stereo not drawn) [Compound 382] = 6
• CC(C)N(C(=O)n1oc(=O)n(CCC2OCCCO2)c1=O)c1ccccc1 [Compound 561] = 9
• Cc1nnsc1Cn1c(=O)on(C(=O)N(c2ccc(F)cc2)C(C)C)c1=O [Compound 380] = 0
• CC(C)N(C(=O)n1oc(=O)n(CCl)c1=O)c1ccc(F)cc1 [Compound 376] = 0
• CC(C)N(C(=O)n1oc(=O)n(CCCF)c1=O)c1ccccc1 [Compound 559] = 9
• CC(C)N(C(=O)n1oc(=O)n(CC[N+](=O)[O-])c1=O)c1ccc(F)cc1F [Compound 591] = 0
• CC(C)N(C(=O)n1oc(=O)n(CSC#N)c1=O)c1ccc(F)cc1 [Compound 618] = 0
• CC(C)N(C(=O)n1oc(=O)n(CNC(=O)c2ccccc2)c1=O)c1ccccc1 [Compound 620] = 0

* * *

test system: corn; experiment: Test B pre/postemergence corn; assay type: in vivo, Zea mays; conditions: Rate 125 g/ha, Postemergence; scale 0 to 10
Measured Attribute: Corn plant response rating

• C=C(C)CCn1c(=O)on(C(=O)N(c2ccc(F)cc2)C(C)C)c1=O = 0
• Cc1ccccc1-n1c(=O)on(C(=O)N(c2ccc(Cl)cc2Cl)C(C)C)c1=O = 0
• CCN(CC)C(=O)Cn1c(=O)on(C(=O)N(c2ccc(F)cc2)C(C)C)c1=O = 0
• CC(C)N(C(=O)n1oc(=O)n(N(C)C)c1=O)c1ccccc1 = 2
• COc1nc(OC)nc(N(C(=O)n2oc(=O)n(-c3ccccc3C)c2=O)C(C)C)n1 = 0
• Cc1nc(C)c(Cn2c(=O)on(C(=O)N(c3ccc(F)cc3)C(C)C)c2=O)s1 = 0

* * *

Plant response rating, B. signalgrass values for the compounds below.
tested on: surinam grass; test: Test B pre/postemergence surinam grass; type: in vivo, Brachiaria decumbens; details: Preemergence, Rate 62 g/ha; scale 0 to 10, 0 is no effect, 10 is complete control
Measured Attribute: Plant response rating, B. signalgrass

• Cc1cccc(Cl)c1-n1c(=O)on(C(=O)N(c2ccc(F)cc2)C(C)C)c1=O = 0
• CCc1cccc(C)c1-n1c(=O)on(C(=O)N(c2ccc(F)cc2)C(C)C)c1=O = 0
• CCN(C(=O)n1oc(=O)n(-c2c(C)cccc2C)c1=O)C1CCCCC1 = 0
• Cc1c(Cl)cccc1-n1c(=O)on(C(=O)N(c2ccc(F)cc2)C(C)C)c1=O = 0
• Cc1ccccc1-n1c(=O)on(C(=O)N(c2ccc(C(F)(F)F)cc2)C(C)C)c1=O = 0

* * *

test system: surinam grass; assay: Test B pre/postemergence surinam grass; format: in vivo, Brachiaria decumbens; settings: Postemergence, Rate 62 g/ha; scale 0 to 10, 0 is no effect, 10 is complete control
Measured Attribute: B. signalgrass plant response rating

• C=CCn1c(=O)on(C(=O)N(c2ccc(Cl)cc2)C(C)C)c1=O = 0
• Cc1cccc(Cl)c1-n1c(=O)on(C(=O)N(c2ccc(F)cc2)C(C)C)c1=O = 0
• Cc1cccc(Cl)c1-n1c(=O)on(C(=O)N(c2ccc(Cl)cc2)C(C)C)c1=O = 0
• Cc1cccc(C)c1-n1c(=O)on(C(=O)N(c2ccc(Cl)cc2)C(C)C)c1=O = 0
• Cc1nn(C)c(Cl)c1-n1c(=O)on(C(=O)N(c2ccc(F)cc2F)C(C)C)c1=O = 0
• CCN(CC)C(=O)n1oc(=O)n(Cc2cccs2)c1=O = 0
• Cc1c(Cl)cccc1-n1c(=O)on(C(=O)N(c2ccc(F)cc2)C(C)C)c1=O = 0
• CC(C)N(C(=O)n1oc(=O)n(C(C)C)c1=O)c1ccc(Cl)cc1 = 0
• Cc1nn(C)c(Cl)c1-n1c(=O)on(C(=O)N(c2ccccc2)C(C)C)c1=O = 0
• CCn1c(=O)on(C(=O)N(c2ccccc2)C(C)C)c1=O = 6

* * *

Below, each of the molecules is paired with its reported Plant response rating, Blackgrass value.
system: blackgrass; assay: Test B pre/postemergence blackgrass; format: in vivo, Alopecurus myosuroides; conditions: Postemergence, Rate 250 g/ha; scale 0 to 10, 0 is no effect, 10 is complete control
Measured Attribute: Plant response rating, Blackgrass

• Cc1nnsc1Cn1c(=O)on(C(=O)N(c2ccccc2)C(C)C)c1=O = 0
• CC(C)N(C(=O)n1oc(=O)n(N2C(C)CCCC2C)c1=O)c1ccc(F)cc1 (stereo not shown) = 2
• CCCCCCn1c(=O)on(C(=O)N(c2ccc(F)cc2)C(C)C)c1=O = 6
• CC(C)N(C(=O)n1oc(=O)n(CCl)c1=O)c1ccc(F)cc1 = 0

* * *

Wild oats plant response rating overview
tested on: wild oat; assay: Test B pre/postemergence wild oat; type: in vivo, Avena fatua; conditions: Preemergence, Rate 250 g/ha; scale 0 (no effect) to 10 (complete control)
Measured Attribute: Wild oats plant response rating

• CC(C)N(C(=O)n1oc(=O)n(C[C@H](C)Cl)c1=O)c1ccccc1 [Compound 747] = 3
• COCC(OC)n1c(=O)on(C(=O)N(c2ccccc2)C(C)C)c1=O (stereo not drawn) [Compound 734] = 10
• CC(C)N(C(=O)n1oc(=O)n(CCCCl)c1=O)c1ccc(Cl)cc1 [Compound 749] = 5
• CC(=O)NCCn1c(=O)on(C(=O)N(c2ccc(F)cc2)C(C)C)c1=O [Compound 727] = 3
• CC(C)N(C(=O)n1oc(=O)n(CCN(C)C(=O)c2ccccc2)c1=O)c1ccc(F)cc1F [Compound 762] = 0
• CC(C)N(C(=O)n1oc(=O)n(CC2CCCCO2)c1=O)c1ccc(F)cc1F (stereo not drawn) [Compound 715] = 9

* * *

tested on: cocklebur; test: Test B pre/postemergence cocklebur; format: in vivo, Xanthium strumarium; conditions: Preemergence, Rate 62 g/ha; scale 0 to 10 (0 no effect, 10 complete control)
Measured Attribute: Cocklebur plant response rating

* CC(C)N(C(=O)n1oc(=O)n(CSC#N)c1=O)c1ccc(F)cc1 | 0
* CCn1c(=O)on(C(=O)N(c2ccccc2)C(C)C)c1=O | 0
* CCC(C)n1c(=O)on(C(=O)N(c2ccccc2)C(C)C)c1=O (stereo not shown) | 0
* C=CCn1c(=O)on(C(=O)N(c2ccc(F)cc2F)C(C)C)c1=O | 0
* Cc1nn(C)c(Cl)c1-n1c(=O)on(C(=O)N(c2ccccc2)C(C)C)c1=O | 0
* CC(C)N(C(=O)n1oc(=O)n(Cc2ccccc2Cl)c1=O)c1ccc(F)cc1 | 0
* CC(C)N(C(=O)n1oc(=O)n(CC[N+](=O)[O-])c1=O)c1ccc(F)cc1F | 0
* CCCn1c(=O)on(C(=O)N(c2ccc(F)cc2)C(C)C)c1=O | 0
* CC(C)N(C(=O)n1oc(=O)n(C[Si](C)(C)C)c1=O)c1ccccc1 | 0
* COCCn1c(=O)on(C(=O)N(c2ccc(F)cc2F)C(C)C)c1=O | 2

* * *

# Plant response rating, Redroot pigweed annotations
test system: pigweed; assay: Test B pre/postemergence pigweed; assay type: in vivo, Amaranthus retroflexus; settings: Preemergence, Rate 125 g/ha; scale 0 to 10 (0 no effect, 10 complete control)
Measured Attribute: Plant response rating, Redroot pigweed

• CC(C)N(C(=O)n1oc(=O)n(C(C)C)c1=O)c1ccc(Cl)cc1 = 8
• Cc1nn(C)c(Cl)c1-n1c(=O)on(C(=O)N(c2ccccc2)C(C)C)c1=O = 7
• Cc1cccc(C)c1-n1c(=O)on(C(=O)N(c2ccc(F)cc2)C(C)C)c1=O = 7
• Cc1ccccc1-n1c(=O)on(C(=O)N(c2cc(F)cc(F)c2)C(C)C)c1=O = 4
• C=CCn1c(=O)on(C(=O)N(c2ccc(Cl)cc2)C(C)C)c1=O = 3
• Cc1nn(C)c(Cl)c1-n1c(=O)on(C(=O)N(c2ccc(F)cc2F)C(C)C)c1=O = 6

* * *

tested on: giant foxtail; test: Test B pre/postemergence giant foxtail; assay type: in vivo, Setaria faberii; conditions: Rate 250 g/ha, Postemergence; scale of 0 to 10 where 0 is no effect and 10 is complete control
Measured Attribute: Plant response rating, Giant foxtail

• CC(C)N(C(=O)n1oc(=O)n(CC2CCC2)c1=O)c1ccccc1 = 8
• CC(C)N(C(=O)n1oc(=O)n(CCCC(F)(F)F)c1=O)c1ccc(F)cc1F = 7
• CC(C)N(C(=O)n1oc(=O)n(CC2CCC2)c1=O)c1ccc(F)cc1F = 9
• CC(C)N(C(=O)n1oc(=O)n(C(C)C)c1=O)c1cnccn1 = 0
• CC(C)N(C(=O)n1oc(=O)n(COCc2ccccc2)c1=O)c1ccc(F)cc1F = 4
• CC(C)N(C(=O)n1oc(=O)n(CCC2OCCCO2)c1=O)c1ccccc1 = 7
• CCN(CC)C(=O)Cn1c(=O)on(C(=O)N(c2ccccc2)C(C)C)c1=O = 2
• C=CCn1c(=O)on(C(=O)N(CC)C2CCCCC2)c1=O = 0
• CCC=CCn1c(=O)on(C(=O)N(c2ccccc2)C(C)C)c1=O = 9

Reference for the values: patent US6737383B1
